experiment: Ratio of drug level in brain to plasma in dog at 10 mg/kg, ip after 2 hrs; type: ADME, organism-based, Canis lupus familiaris; parameters: dose 10 mg/kg, route intraperitoneal; settings: read-out: BPR
RECORDED_ENDPOINT: Kp at 2 h
Numbers only.

// query Given the compound C[C@@H]1CCCN1CCCOc1ccc(C2=NNC(=O)[C@@H]3C[C@H]23)cc1 , what is its reported Kp at 2 h?
// result 2.1

---

test: Half life in rat liver microsomes; format: ADME
RECORDED_ENDPOINT: half-life

See these solved cases before continuing.
[[record]]
molecule = "C[C@@H]1CCCN1CCCOc1ccc(C2=NNC(=O)[C@@H]3C[C@H]23)cc1"
readout_value = "> 40 min"

[[record]]
molecule = "C[C@@H]1CCCN1CCCOc1ccc(C2=NNC(=O)C3CC23)cc1 (some centres undefined)"
readout_value = "> 40 min"

[[record]]
molecule = "C[C@H](COc1ccc(C2=NNC(=O)C3CC23)cc1)CN1CCC[C@H]1C (mixture of isomers)"
readout_value = "> 40 min"


For the next question, use this molecule.
// query Given the molecule C[C@@H]1CCCN1CCCOc1ccc(C2=NNC(=O)[C@H]3C[C@@H]23)cc1 , what is its reported half-life?
// result > 40 min

---

assay: Volume of distribution at steady state in dog at 1 mg/kg, iv; format: ADME, organism-based, Canis lupus familiaris; parameters: dose 1 mg/kg, route intravenous; conditions: in vivo, read-out: Vdss
RECORDED_ENDPOINT: Vd (L/kg)
Numbers only, in L/kg.

// query Given the compound C[C@@H]1CCCN1CCCOc1ccc(C2=NNC(=O)[C@@H]3C[C@H]23)cc1 , what is its reported Vd?
// result 3.7

---

Could you please report measured Ki for the items listed next?
molecular target: Histamine H3 receptor (Homo sapiens, UniProt Q9Y5N1)
Sequence (Q9Y5N1 whole entry): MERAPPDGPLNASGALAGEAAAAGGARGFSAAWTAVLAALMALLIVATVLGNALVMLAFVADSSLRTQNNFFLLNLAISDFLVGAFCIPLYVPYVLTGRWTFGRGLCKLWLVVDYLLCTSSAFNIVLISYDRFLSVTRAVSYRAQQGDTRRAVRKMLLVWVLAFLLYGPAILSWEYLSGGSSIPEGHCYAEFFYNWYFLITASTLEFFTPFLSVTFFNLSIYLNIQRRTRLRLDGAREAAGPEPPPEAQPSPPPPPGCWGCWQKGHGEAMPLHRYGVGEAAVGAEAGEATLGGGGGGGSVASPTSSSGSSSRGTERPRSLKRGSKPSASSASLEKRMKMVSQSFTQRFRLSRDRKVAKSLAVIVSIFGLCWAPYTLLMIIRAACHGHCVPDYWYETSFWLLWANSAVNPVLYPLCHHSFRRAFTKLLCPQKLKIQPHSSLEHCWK
Numbers only, in µM.

See these solved cases before continuing.
[[record]]
compound = "Cc1cc(OCCCN2CCC[C@@H]2C)ccc1C1=NNC(=O)C2CC12 (mixture of isomers)"
unit_string = "µM"
readout_value = 0.049

[[record]]
compound = "Cc1cc(OCCCN2CCCCC2)ccc1C1=NNC(=O)C2CC12 (racemic)"
unit_string = "µM"
readout_value = 0.039

[[record]]
compound = "C[C@H](COc1ccc(C2=NNC(=O)C3CC23)cc1)CN1CCC[C@H]1C (mixture of isomers)"
unit_string = "µM"
readout_value = 0.0023


// query Given the compound Cc1cc(OCCCN2CCC[C@H]2C)ccc1C1=NNC(=O)C2CC12 (mixture of isomers) , what is its reported Ki?
// result 0.007

---

target: Histamine H1 receptor (Homo sapiens)
Sequence (P35367 whole entry): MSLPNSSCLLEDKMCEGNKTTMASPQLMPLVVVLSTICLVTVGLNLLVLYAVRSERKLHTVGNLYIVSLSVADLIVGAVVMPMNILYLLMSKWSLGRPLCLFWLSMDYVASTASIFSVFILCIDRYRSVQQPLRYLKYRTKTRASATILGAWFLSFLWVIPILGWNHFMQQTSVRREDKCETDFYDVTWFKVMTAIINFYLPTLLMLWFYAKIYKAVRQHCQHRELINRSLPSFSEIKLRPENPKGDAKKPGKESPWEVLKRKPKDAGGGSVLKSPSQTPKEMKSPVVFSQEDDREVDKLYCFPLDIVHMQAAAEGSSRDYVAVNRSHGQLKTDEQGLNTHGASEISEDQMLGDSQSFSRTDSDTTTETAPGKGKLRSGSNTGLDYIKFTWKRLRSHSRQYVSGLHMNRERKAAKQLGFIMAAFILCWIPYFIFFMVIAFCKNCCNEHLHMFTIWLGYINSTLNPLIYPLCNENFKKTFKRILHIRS
RECORDED_ENDPOINT: Ki

// query Given the compound C[C@@H]1CCCN1CCCOc1ccc(C2=NNC(=O)[C@@H]3C[C@H]23)cc1 , what is its reported Ki?
// result > 10 µM

---

assay: Oral bioavailability in monkey at 3 mg/kg; assay type: ADME, organism-based, Macaca mulatta; conditions: rhesus monkey, in vivo
RECORDED_ENDPOINT: bioavailability (%)
Give bare numbers, in %.

// query Given the compound C[C@@H]1CCCN1CCCOc1ccc(C2=NNC(=O)[C@@H]3C[C@H]23)cc1 , what is its reported bioavailability?
// result 136

---

pKi, Histamine H3 receptor (Rattus norvegicus, UniProt Q9QYN8): measured values
Give bare numbers, as −log10 of the molar value.

See these solved cases before continuing.
[[record]]
compound = "O=C1NN=C(c2ccc(OCCCN3CCCCC3)cc2)C2CC12 (racemic)"
recorded_endpoint = "pKi"
readout_value = 7.27

[[record]]
compound = "Cc1cc(OCCCN2CCC[C@@H]2C)ccc1C1=NNC(=O)C2CC12 (mixture of isomers)"
recorded_endpoint = "pKi"
readout_value = 6.99

[[record]]
compound = "C[C@H](COc1ccc(C2=NNC(=O)C3CC23)cc1)CN1CCC[C@H]1C (mixture of isomers)"
recorded_endpoint = "pKi"
readout_value = 8.01

[[record]]
compound = "C[C@H]1CCCN1CCCOc1ccc(C2=NNC(=O)C3CC23)cc1 (mixture of isomers)"
recorded_endpoint = "pKi"
readout_value = 7.24


For the next question, use this compound.
// query Given the compound C[C@@H]1CCCN1CCCOc1ccc(C2=NNC(=O)[C@@H]3C[C@H]23)cc1 , what is its reported pKi?
// result 8.00

---

assay: Volume of distribution at steady state in monkey at 1 mg/kg, iv; format: ADME, organism-based, Macaca mulatta; parameters: dose 1 mg/kg, route intravenous; details: rhesus monkey, in vivo, read-out: Vdss
RECORDED_ENDPOINT: Vd (L/kg)
One number for each entry, in L/kg.

// query Given the compound C[C@@H]1CCCN1CCCOc1ccc(C2=NNC(=O)[C@@H]3C[C@H]23)cc1 , what is its reported Vd?
// result 4

---

assay: Cmax in dog at 3 mg/kg, po; assay type: ADME, organism-based, Canis lupus familiaris; parameters: dose 3 mg/kg, route oral; conditions: in vivo
RECORDED_ENDPOINT: Cmax (ng/mL)
Give bare numbers, in ng/mL.

// query Given the compound C[C@@H]1CCCN1CCCOc1ccc(C2=NNC(=O)[C@@H]3C[C@H]23)cc1 , what is its reported Cmax?
// result 664

---

target: Alpha-2C adrenergic receptor (Homo sapiens, UniProt P18825); experiment: Inhibition of alpha-2C adrenergic receptor (unknown origin)
Sequence (P18825 whole entry): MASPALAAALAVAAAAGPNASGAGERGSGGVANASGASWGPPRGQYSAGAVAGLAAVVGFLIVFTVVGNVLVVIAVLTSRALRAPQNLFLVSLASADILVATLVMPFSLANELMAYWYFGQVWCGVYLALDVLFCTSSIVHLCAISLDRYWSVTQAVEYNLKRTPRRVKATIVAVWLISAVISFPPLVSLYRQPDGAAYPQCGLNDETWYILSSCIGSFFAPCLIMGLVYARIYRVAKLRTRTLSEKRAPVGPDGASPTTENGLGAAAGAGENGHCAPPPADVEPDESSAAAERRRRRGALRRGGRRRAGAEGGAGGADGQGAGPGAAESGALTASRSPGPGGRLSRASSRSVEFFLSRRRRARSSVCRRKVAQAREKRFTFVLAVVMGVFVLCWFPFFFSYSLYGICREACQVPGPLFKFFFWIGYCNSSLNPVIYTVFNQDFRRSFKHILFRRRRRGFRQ
RECORDED_ENDPOINT: Ki (µM)
Answers are plain numbers, in µM.

// query Given the molecule C[C@@H]1CCCN1CCCOc1ccc(C2=NNC(=O)[C@@H]3C[C@H]23)cc1 , what is its reported Ki?
// result 1.5

---

assay: Oral bioavailability in rat at 10 mg/kg; format: ADME, organism-based; details: in vivo
RECORDED_ENDPOINT: bioavailability (%)
Give bare numbers, in %.

[[record]]
structure_smiles_string = "C[C@@H]1CCCN1CCCOc1ccc(C2=NNC(=O)[C@@H]3C[C@H]23)cc1"
recorded_endpoint = "bioavailability"
readout_value = 34


For the next question, use this compound.
// query Given the compound C[C@@H]1CCCN1CCCOc1ccc(C2=NNC(=O)[C@H]3C[C@@H]23)cc1 , what is its reported bioavailability?
// result 46

---

Target: Cytochrome P450 1A2 (Homo sapiens, UniProt P05177)
Sequence (P05177 whole entry): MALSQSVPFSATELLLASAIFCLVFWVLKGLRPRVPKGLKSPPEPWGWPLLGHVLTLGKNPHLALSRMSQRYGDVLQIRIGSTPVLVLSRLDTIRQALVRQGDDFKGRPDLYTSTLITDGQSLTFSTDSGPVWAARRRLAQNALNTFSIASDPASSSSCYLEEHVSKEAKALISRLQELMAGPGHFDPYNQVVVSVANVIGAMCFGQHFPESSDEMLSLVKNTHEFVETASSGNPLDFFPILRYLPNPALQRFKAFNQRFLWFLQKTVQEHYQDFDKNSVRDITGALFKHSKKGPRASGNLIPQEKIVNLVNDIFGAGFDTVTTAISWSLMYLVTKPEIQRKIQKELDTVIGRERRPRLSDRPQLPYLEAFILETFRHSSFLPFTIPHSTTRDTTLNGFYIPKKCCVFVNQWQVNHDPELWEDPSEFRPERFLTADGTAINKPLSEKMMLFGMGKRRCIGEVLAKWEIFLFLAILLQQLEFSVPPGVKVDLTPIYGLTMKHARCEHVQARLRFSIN
RECORDED_ENDPOINT: IC50

[[record]]
molecule = "C[C@@H]1CCCN1CCCOc1ccc(C2=NNC(=O)[C@H]3C[C@@H]23)cc1"
recorded_endpoint = "IC50"
readout_value = "> 30 µM"


For the next question, use this molecule.
// query Given the molecule C[C@@H]1CCCN1CCCOc1ccc(C2=NNC(=O)C3CC23)cc1 (some centres not stated) , what is its reported IC50?
// result > 30 µM

---

assay: Clearance in monkey at 1 mg/kg, iv; format: ADME, organism-based, Macaca mulatta; design: dose 1 mg/kg, route intravenous; conditions: rhesus monkey, in vivo
RECORDED_ENDPOINT: clearance (mL/min/kg)
One number for each entry, in mL/min/kg.

// query Given the molecule C[C@@H]1CCCN1CCCOc1ccc(C2=NNC(=O)[C@@H]3C[C@H]23)cc1 , what is its reported clearance?
// result 6

---

target: Histamine H3 receptor (Homo sapiens, UniProt Q9Y5N1); experiment: Inverse agonist activity at human H3R expressed in CHO cells assessed as inhibition of RAMH-induced [35S]GTPgammaS binding relative to control
RECORDED_ENDPOINT: pEC50
One number for each entry, as −log10 of the molar value.

[[record]]
structure_smiles_string = "C[C@@H]1CCCN1CCCOc1ccc(C2=NNC(=O)[C@@H]3C[C@H]23)cc1"
recorded_endpoint = "pEC50"
readout_value = 9.15


For the next question, use this compound.
// query Given the compound C[C@@H]1CCCN1CCCOc1ccc(C2=NNC(=O)[C@H]3C[C@@H]23)cc1 , what is its reported pEC50?
// result 9.22

Values compiled from ChEMBL document CHEMBL3414489.
